Recorded Total Cell Count, one value per entry.
# System: HEK-293T
# test.details: Multiplex assay against HEK293T
# Assay type: toxicity, cell-based
# condition: human, 12 h, 10 µM, compound concentration 10 uM, replicate 1
Respond with the number and no other words.

Solved cases below.
compound.smiles: COc1c(Nc2ccc(S(C)(=O)=O)nc2C)ncnc1OC1CCN(C(=O)OC(C)C)CC1
Total Cell Count: 302

compound.smiles: O=c1ccc2ccc(OCCCCN3CCN(c4cccc5sccc45)CC3)cc2[nH]1
Total Cell Count: 299

Now consider the entry below.
Param item = Nc1nc(-c2ccco2)c2cnn(Cc3ccccc3F)c2n1 ; retrieve measured Total Cell Count.
306
